src = patent EP0796866A1

SUBJECT_OF_TEST: human thrombin (Homo sapiens)
Counter-ions that a name gives are not always drawn.
MEASURE: Kd (nM)

>  <COMPOUND>
O=C(O)CN[C@H](CC1CCCCC1)C(=O)N1CCC[C@H]1C(=O)NCCCc1c[nH]cn1 [Example 8, hydrochloride]

>  <Kd, nM>
12.5

$$$$
>  <COMPOUND>
O=C(O)CN[C@H](CC1CCCCC1)C(=O)N1CCC[C@H]1C(=O)NC/C=C/c1c[nH]cn1 [Example 7, hydrochloride]

>  <Kd, nM>
17.5

$$$$
